- Tested on: Enterobacter aerogenes ATCC 29751
- procedure summary: In-vitro antibacterial activity (MIC), two-fold dilution method
- Type: cell-based
- setup conditions: Klebsiella aerogenes, ATCC29751; Enterobacter aerogenes ATCC 29751; Muller-Hinton agar, 37° C., 20 hours; read-out: minimal inhibitory concentration (MIC)
quantity name: MIC

# compound, quantity name, recorded result
data = [
    ("Nc1nc(/C(=N/OCc2ccco2)C(=O)NC2C(=O)N3C(C(=O)[O-])=C(C[n+]4ccccc4)CSC23)cs1 (stereo not shown)", "MIC", "4 µg/mL"),
    ("Cn1nnnc1SCC1=C(C(=O)O)N2C(=O)C(NC(=O)/C(=N\\OCc3ccco3)c3csc(N)n3)C2SC1 (stereo not shown)", "MIC", "8 µg/mL"),
    ("CO[C@@]1(NC(=O)C(C(=O)O)c2ccc(O)cc2)C(=O)N2C(C(=O)O)=C(CSc3nnnn3C)CO[C@@H]21 (stereo partly shown) [Moxalactam, reference compound]", "MIC", "1 µg/mL"),
    ("CC(=O)OCC1=C(C(=O)O)N2C(=O)C(NC(=O)/C(=N\\OCc3ccco3)c3csc(N)n3)C2SC1 (stereo not shown)", "MIC", "16 µg/mL"),
]
